# test system: human peripheral type cannabinoid receptor (hCB2) (Homo sapiens)
# Construct: expressed in transfected cells; host or cells: CHO cells
# experiment notes: Binding assay (in vitro), [3H]Win55212-2 displacement, membrane fractions of human CB2-CHO
# study conditions: indicator of selectivity for peripheral type receptors
experimental endpoint: C/S (Ki central type receptors / Ki peripheral type receptors)
The reply should be a number, written without any unit.

Request the reported C/S (Ki central type receptors / Ki peripheral type receptors) associated with CCCCOc1c(OC)ccc2cc(CNC(=O)Cc3ccc(O)cc3)c(=O)[nH]c12
2692

Which measured C/S (Ki central type receptors / Ki peripheral type receptors) value corresponds to CCOc1c(OC)ccc2cc(CN(C)C)c(=O)[nH]c12 ?
21432

Any idea what C/S (Ki central type receptors / Ki peripheral type receptors) was measured for CCOc1c(OC)ccc2cc(CO)c(=O)[nH]c12 ?
2219

Field request: C/S (Ki central type receptors / Ki peripheral type receptors) | item: CCCCCOc1c(OC)ccc2cc(C(=O)O)c(=O)[nH]c12
487

Given CCCCCOc1cc2cc(C(=O)NCCN3CCOCC3)c(=O)n(C)c2cc1OC , state its recorded C/S (Ki central type receptors / Ki peripheral type receptors).
1075

Suppose we examine the compound CCCCCOc1c(OC)ccc2cc(C(=O)NCCc3ccc(Cl)cc3)c(=O)[nH]c12 ; what C/S (Ki central type receptors / Ki peripheral type receptors) value has been reported?
675

Can you look up the measured C/S (Ki central type receptors / Ki peripheral type receptors) of CCCCCOc1cc2cc(C(=O)NCc3ccc4c(c3)OCO4)c(=O)[nH]c2cc1OC for me?
258

Param item = CCCCOc1c(OC)ccc2cc(CNC(=O)Nc3ccc(F)cc3)c(=O)[nH]c12 ; retrieve measured C/S (Ki central type receptors / Ki peripheral type receptors).
1000

---

# test system: human central type cannabinoid receptor (hCB1) (Homo sapiens, UniProt P21554)
# Construct: expressed in transfected cells; host or cells: CHO cells
# Sequence (P21554 whole entry): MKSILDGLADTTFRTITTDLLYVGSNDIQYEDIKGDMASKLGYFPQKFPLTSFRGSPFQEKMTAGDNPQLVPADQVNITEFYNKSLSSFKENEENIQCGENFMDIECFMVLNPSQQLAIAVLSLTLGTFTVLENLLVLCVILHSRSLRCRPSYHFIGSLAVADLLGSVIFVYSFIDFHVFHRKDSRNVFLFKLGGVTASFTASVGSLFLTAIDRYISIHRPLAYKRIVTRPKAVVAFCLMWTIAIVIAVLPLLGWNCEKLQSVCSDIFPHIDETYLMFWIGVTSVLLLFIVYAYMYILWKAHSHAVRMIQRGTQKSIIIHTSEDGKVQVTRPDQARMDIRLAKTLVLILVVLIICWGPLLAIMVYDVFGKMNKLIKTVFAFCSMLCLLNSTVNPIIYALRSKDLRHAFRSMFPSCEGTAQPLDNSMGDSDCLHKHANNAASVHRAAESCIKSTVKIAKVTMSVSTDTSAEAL
# experiment notes: Binding assay (in vitro), [3H]Win55212-2 displacement, membrane fractions of human CB1-CHO
# study conditions: hCB1 expressed in CHO cells, [3H]Win55212-2 2 nM, 30° C. 90 minutes; read-out: Ki value Central type receptor (C)
experimental endpoint: pKi
// pKi: -log10(molar conc.)

Notebook: pull reported pKi for human central type cannabinoid receptor (hCB1) (Homo sapiens, UniProt P21554), entry CCCCOc1c(OC)ccc2cc(COC(=O)Nc3ccc(F)cc3)c(=O)[nH]c12
6.15

Fill in the recorded pKi for this compound, with human central type cannabinoid receptor (hCB1) (Homo sapiens, UniProt P21554) as test system: CCCCCOc1cc2cc(C(=O)NCCc3ccc(F)cc3)c(=O)n(C)c2cc1OC
6.06

Form field: pKi recorded for CCOc1c(OC)ccc2cc(CN(C)C)c(=O)[nH]c12 with human central type cannabinoid receptor (hCB1) (Homo sapiens, UniProt P21554) (enter value)
5.44

Fill in the recorded pKi for this compound, with human central type cannabinoid receptor (hCB1) (Homo sapiens, UniProt P21554) as test system: CCOc1c(OC)ccc2cc(CN3CCOCC3)c(=O)[nH]c12
6.18

Short answer please: pKi, human central type cannabinoid receptor (hCB1) (Homo sapiens, UniProt P21554), entry CCOc1c(OC)ccc2cc(C(=O)NCCc3ccncc3)c(=O)[nH]c12
6.22

Record CCCCCOc1c(OC)ccc2cc(C(=O)NCCc3ccccc3)c(=O)[nH]c12 : what is its pKi with human central type cannabinoid receptor (hCB1) (Homo sapiens, UniProt P21554)?
7.41

// map CCCCOc1c(OC)ccc2cc(C(=O)NCCc3ccncc3)c(=O)[nH]c12 [Example 3-16] to recorded pKi (system: human central type cannabinoid receptor (hCB1) (Homo sapiens, UniProt P21554))
6.68

Notebook: pull reported pKi for human central type cannabinoid receptor (hCB1) (Homo sapiens, UniProt P21554), entry CCOc1c(OC)ccc2cc(COC(=O)Nc3ccncc3)c(=O)[nH]c12
6.36

# returns recorded pKi (system: human central type cannabinoid receptor (hCB1) (Homo sapiens, UniProt P21554)) for CCCCCOc1c(OC)ccc2cc(C(=O)NCc3ccc(F)cc3)c(=O)[nH]c12
6.35

Checklist item: pKi tested on human central type cannabinoid receptor (hCB1) (Homo sapiens, UniProt P21554), entry CCCCCOc1cc2cc(C(=O)O)c(=O)n(C)c2cc1OC , value?
6.42

Reported pKi for human central type cannabinoid receptor (hCB1) (Homo sapiens, UniProt P21554), given CCCCCOc1c(OC)ccc2cc(C(=O)O)c(=O)n(C)c12 ?
6.11

Form field - read-out: pKi; system: human central type cannabinoid receptor (hCB1) (Homo sapiens, UniProt P21554); submitted item: CCCCCOc1c(OC)ccc2cc(C(=O)NCc3ccc4c(c3)OCO4)c(=O)[nH]c12
5.46

---

# test system: human peripheral type cannabinoid receptor (hCB2) (Homo sapiens, UniProt P34972)
# Construct: expressed in transfected cells; host or cells: CHO cells
# Sequence (P34972 whole entry): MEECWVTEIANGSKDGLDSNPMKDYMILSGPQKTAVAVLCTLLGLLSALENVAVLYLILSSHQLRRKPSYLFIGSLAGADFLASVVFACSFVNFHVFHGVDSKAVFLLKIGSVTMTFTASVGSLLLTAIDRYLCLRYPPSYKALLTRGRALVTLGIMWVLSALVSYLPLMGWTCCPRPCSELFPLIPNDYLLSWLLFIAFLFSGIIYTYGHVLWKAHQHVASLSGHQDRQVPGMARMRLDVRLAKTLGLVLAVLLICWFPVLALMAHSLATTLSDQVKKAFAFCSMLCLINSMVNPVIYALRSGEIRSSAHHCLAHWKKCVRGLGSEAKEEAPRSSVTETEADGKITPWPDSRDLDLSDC
# experiment notes: Binding assay (in vitro), [3H]Win55212-2 displacement, membrane fractions of human CB2-CHO
# study conditions: indicator of selectivity for peripheral type receptors
Could you mark each record Fulfilled if its C/S (Ki central type receptors / Ki peripheral type receptors) falls strictly under 3000, and Not fulfilled if it equals or exceeds it?

Lab log: compare recorded C/S (Ki central type receptors / Ki peripheral type receptors) with 3000; is it strictly lower for CCCCCOc1cc2cc(C(=O)NCCN3CCOCC3)c(=O)[nH]c2cc1OC ?
Not fulfilled

Given CCCOc1c(OC)ccc2cc(C(=O)NCCc3ccccc3)c(=O)[nH]c12 , is recorded C/S (Ki central type receptors / Ki peripheral type receptors) strictly lower than 3000?
Fulfilled

Say whether its C/S (Ki central type receptors / Ki peripheral type receptors) is strictly beneath 3000. Entry: CCCCCOc1c(OC)ccc2cc(C(=O)NCCc3ccccc3F)c(=O)[nH]c12
Fulfilled

Please determine if CCCCCOc1c(OC)ccc2cc(C(=O)NCCc3ccc(F)cc3)c(=O)[nH]c12 is below 3000 in terms of C/S (Ki central type receptors / Ki peripheral type receptors).
Not fulfilled

Hi there! Is C/S (Ki central type receptors / Ki peripheral type receptors) for CCCOc1c(OC)ccc2cc(C(=O)NCCc3ccc(F)cc3)c(=O)[nH]c12 below 3000, do you know?
Not fulfilled

Dear reviewer, please state whether CCCCOc1c(OC)ccc2cc(C(=O)NCCc3ccc(F)cc3)c(=O)[nH]c12 has C/S (Ki central type receptors / Ki peripheral type receptors) strictly beneath 3000.
Not fulfilled

C/S (Ki central type receptors / Ki peripheral type receptors) under 3000? Item: CCCOc1c(OC)ccc2cc(C(=O)NCCc3ccncc3)c(=O)[nH]c12
Fulfilled

Just wondering, is C/S (Ki central type receptors / Ki peripheral type receptors) of CCOc1c(OC)ccc2cc(COC(=O)Nc3ccncc3)c(=O)[nH]c12 below 3000?
Not fulfilled

---

# test system: human peripheral type cannabinoid receptor (hCB2) (Homo sapiens, UniProt P34972)
# Construct: expressed in transfected cells; host or cells: CHO cells
# experiment notes: Binding assay (in vitro), [3H]Win55212-2 displacement, membrane fractions of human CB2-CHO
# study conditions: Ki value Peripheral type receptor (S), hCB2 expressed in CHO cells, [3H]Win55212-2 2 nM, 30° C. 90 minutes
Counter-ions that a name gives are not always drawn.
experimental endpoint: pKi
pKi is a log-scale quantity: -log10 of the concentration expressed in molar.

For CCCCCOc1cc2cc(C(=O)O)c(=O)n(C)c2cc1OC , what is its reported pKi?
9.38

Entry CCCCCOc1c(OC)ccc2cc(C(=O)NCCc3ccc(O)cc3)c(=O)[nH]c12 : reported pKi = ?
9.32

Need pKi of CCCCCOc1c(OC)ccc2cc(C(=O)NCCc3ccc(O)c(OC)c3)c(=O)[nH]c12 , thanks.
9.01

# lookup: pKi of CCCCCOc1c(OC)ccc2cc(C(=O)O)c(=O)n(C)c12
9.89

Please look up its pKi: CCCCCOc1cc2cc(C(=O)NCCN3CCOCC3)c(=O)n(C)c2cc1OC
9.74

Would you kindly share the measured pKi for CCCCCOc1c(OC)ccc2cc(C(=O)NCCc3cccc(F)c3)c(=O)[nH]c12 ?
9.39

Bench note: what pKi did CCCOc1c(OC)ccc2cc(C(=O)NCCc3ccccc3)c(=O)[nH]c12 show?
10.05

Look up pKi for this compound: CCCCCOc1c(OC)ccc2cc(C(=O)NCc3ccc4c(c3)OCO4)c(=O)n(C)c12
9.66

Consider the compound shown here: CCCCCOc1cc2cc(C(=O)NCCc3ccc(F)cc3)c(=O)n(C)c2cc1OC What is its recorded pKi?
10.37

Quick check: pKi of CCCCCOc1c(OC)ccc2cc(C(=O)NCCc3ccncc3)c(=O)[nH]c12 ?
9.89

Give the measured pKi of CCCCOc1c(OC)ccc2cc(C(=O)NCCc3ccncc3)c(=O)[nH]c12 [Example 3-17, hydrochloride] .
9.64

Find the recorded pKi belonging to CCCCCOc1cc2cc(C(=O)NCc3ccc4c(c3)OCO4)c(=O)n(C)c2cc1OC and report it.
10.49

Report pKi for CCOc1c(OC)ccc2cc(C(=O)NCCc3ccc(F)cc3)c(=O)[nH]c12 please.
8.15

What does the record list as pKi for CCCCCOc1c(OC)ccc2cc(C(=O)NCCc3ccncc3)c(=O)n(C)c12 ?
9.12

Request the reported pKi associated with CCCCOc1c(OC)ccc2cc(C(=O)NCCc3ccncc3)c(=O)[nH]c12 [Example 3-16]
11.00

Tell me the measured pKi of CCCCCOc1c(OC)ccc2cc(C(=O)NCc3ccc(F)cc3)c(=O)n(C)c12 , please.
8.67

Query: pKi; subject: CCCCOc1c(OC)ccc2cc(C(=O)NCCc3ccc(F)cc3)c(=O)[nH]c12
10.80
